- assay details: Stability of hyperforin salts on storage at room temperature (content by HPLC)
- Assay type: physicochemical
- assay setup: storage time 0; HPLC; hyperforin (examples 1 to 20) or hyperforin+adhyperforin (examples 21 to 31)
property: Initial value, hyperforin content (% of the stoichiometric content) (%)

compound	endpoint result
CC(C)=CCCC1(C)C(CC=C(C)C)CC2(CC=C(C)C)C(=O)C1(C(=O)C(C)C)C(=O)C(CC=C(C)C)=C2O.NCCCNC1CCCCC1 (stereo not shown) [Example 15]	90.8
CC(C)=CCC[C@]1(C)C(CC=C(C)C)C[C@@]2(CC=C(C)C)C(=O)[C@]1(C(=O)C(C)C)C(=O)C(CC=C(C)C)=C2O.Nc1ccncc1 (stereo partly shown) [Example 16]	94.6
C1CCNC1.CC(C)=CCC[C@]1(C)C(CC=C(C)C)C[C@@]2(CC=C(C)C)C(=O)[C@]1(C(=O)C(C)C)C(=O)C(CC=C(C)C)=C2O (stereo partly shown) [Example 5, Pyrrolidine Salt of Hyperforin]	93.7
CC(C)=CCC[C@]1(C)C(CC=C(C)C)C[C@@]2(CC=C(C)C)C(=O)[C@]1(C(=O)C(C)C)C(=O)C(CC=C(C)C)=C2O.COc1cc(CN)cc(OC)c1OC (stereo partly shown) [Example 3]	87.2

---

Below: a set of entries, each annotated with reported Change in the hyperforin content, difference after 1 week.
- assay details: Stability of hyperforin salts on storage at room temperature (content by HPLC)
- Format: physicochemical
- assay setup: room temperature, brown-glass bottles, without protective gas; HPLC; 1 week
property: Change in the hyperforin content, difference after 1 week (%)

molecule	endpoint result
C1CCNC1.CC(C)=CCC[C@]1(C)C(CC=C(C)C)C[C@@]2(CC=C(C)C)C(=O)[C@]1(C(=O)C(C)C)C(=O)C(CC=C(C)C)=C2O (stereo partly shown) [Example 5, Pyrrolidine Salt of Hyperforin]	−0.5
CC(C)=CCCC1(C)C(CC=C(C)C)CC2(CC=C(C)C)C(=O)C1(C(=O)C(C)C)C(=O)C(CC=C(C)C)=C2O.NCCCNC1CCCCC1 (stereo not shown) [Example 15]	−2.0

Hello, the source for this data is patent US6444662B1, in case you need it.
